So I've got MIC readings for Corynebacterium minutissimum ATCC 23348, take a look.
ENDPOINT_NAME: MIC (µg/mL)

I: CCCCCCCCCCCCOS(=O)(=O)[O-].[Na+] [sodium lauryl sulfate]
II: CCCCCCCC/C=C\CCCCCCCCOS(=O)(=O)[O-].[Na+] [Ex. 1A, sodium oleyl sulfate]
*Q* Kindly identify the item with the lower MIC figure among these two: I and II # respond with the chosen item's label
*A* II

----------
So I've got MIC readings for Corynebacterium minutissimum ATCC 23348, take a look.

Below are worked cases with known answers.
CCCCCCCCCCOS(=O)(=O)[O-].[Na+] [sodium decyl sulfate]; > 500 µg/mL
CCCCCCCCOS(=O)(=O)[O-].[Na+] [sodium octyl sulfate]; > 500 µg/mL

Next:
*Q* Fill in the recorded MIC for this compound, with Corynebacterium minutissimum ATCC 23348 as test system: CCCCCCCCCCCCCCCCCCOS(=O)(=O)[O-].[Na+] [octadecyl sulfate sodium salt]
*A* > 500 µg/mL
